STUDY_TARGET: cyBCMA
MEASUREMENT_NOTES: Kinetics and affinity of cyBCMA/human IgG interactions by SPR (Bio-Rad Proteon XPR36)
Format: binding, cynomolgus
STATED_CONDITIONS: 37° C.
MEASURED_PARAMETER: kd (1/s) cyBCMA @37° C. (s⁻¹)
Give bare numbers, in s⁻¹.

>  <MOLECULE>
L3.PY/L1.PS/H2.QR: anti-BCMA antibody (antibody, V domains shown) VH: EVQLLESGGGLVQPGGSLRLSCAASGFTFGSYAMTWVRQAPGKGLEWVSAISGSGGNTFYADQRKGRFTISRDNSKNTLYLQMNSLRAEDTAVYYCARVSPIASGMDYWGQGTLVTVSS VL: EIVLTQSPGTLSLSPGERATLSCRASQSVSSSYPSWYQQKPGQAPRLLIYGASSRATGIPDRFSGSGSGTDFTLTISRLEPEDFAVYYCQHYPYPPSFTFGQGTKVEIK

>  <VALUE_UNITS>
s⁻¹

>  <kd (1/s) cyBCMA @37° C.>
0.00067

$$$$

Data request, read-out kd (1/s) cyBCMA @37° C., for L3.PY/L1.AH/H2.LT: anti-BCMA antibody (antibody, V domains shown) VH: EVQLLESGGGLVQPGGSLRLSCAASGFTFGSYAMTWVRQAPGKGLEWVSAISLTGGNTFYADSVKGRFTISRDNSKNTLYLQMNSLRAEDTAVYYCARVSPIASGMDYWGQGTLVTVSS VL: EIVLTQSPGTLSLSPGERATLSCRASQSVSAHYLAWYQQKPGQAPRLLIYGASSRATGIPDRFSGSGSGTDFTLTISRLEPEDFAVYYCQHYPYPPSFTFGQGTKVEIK
0.00296
